MEASUREMENT TARGET: Alpha-2C adrenergic receptor (Homo sapiens, UniProt P18825)
Sequence (P18825 whole entry): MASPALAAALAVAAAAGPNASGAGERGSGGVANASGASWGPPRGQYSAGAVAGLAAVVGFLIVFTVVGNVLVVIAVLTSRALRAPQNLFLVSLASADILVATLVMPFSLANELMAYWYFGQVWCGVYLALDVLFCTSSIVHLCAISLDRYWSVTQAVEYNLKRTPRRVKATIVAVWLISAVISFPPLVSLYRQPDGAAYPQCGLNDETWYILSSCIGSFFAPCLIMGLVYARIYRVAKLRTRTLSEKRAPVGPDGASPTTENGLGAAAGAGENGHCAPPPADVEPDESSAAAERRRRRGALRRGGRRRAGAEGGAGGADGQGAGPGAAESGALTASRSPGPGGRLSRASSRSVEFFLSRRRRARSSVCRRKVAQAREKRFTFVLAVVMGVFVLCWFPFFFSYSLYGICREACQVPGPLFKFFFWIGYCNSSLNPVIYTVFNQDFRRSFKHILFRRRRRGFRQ
PROTOCOL SUMMARY: DRUGMATRIX: Adrenergic Alpha-2C radioligand binding (ligand: [3H] MK-912)
Format: cell membranes, Sf9, Membrane
MEASUREMENT PARAMETERS: sf9
OBSERVED PROPERTY: IC50

Solved entries:
| MOLECULE | IC50 |
| --- | --- |
| C[n+]1ccc(-c2cc[n+](C)cc2)cc1.[Cl-].[Cl-] [PARAQUAT DICHLORIDE] | Not Active |
| COC1=C(OC)C(=O)C(CCCCCCCCCCO)=C(C)C1=O | Not Active |
| Cc1nnc2n1-c1ccc(Cl)cc1C(c1ccccc1)=NC2 | Not Active |
| COC(=O)Nc1nc2ccc([S+]([O-])c3ccccc3)cc2[nH]1 (stereo not given) | Not Active |

Problem: // query IC50 value for entry CC(c1cc2ccccc2s1)N(O)C(N)=O (stereo not given)
Solution: Not Active

Problem: // query IC50 value for entry CC(C(=O)O)c1cccc(Oc2ccccc2)c1 (stereo not given)
Solution: Not Active

Problem: // query IC50 value for entry `Oc1cccc(O)c1O`
Solution: Not Active

---

MEASUREMENT TARGET: Neuropeptide Y receptor type 1 (Homo sapiens, UniProt P25929); further: in other assays of this panel Not Active means under 50% inhibition at 10 µM
Sequence (P25929 whole entry): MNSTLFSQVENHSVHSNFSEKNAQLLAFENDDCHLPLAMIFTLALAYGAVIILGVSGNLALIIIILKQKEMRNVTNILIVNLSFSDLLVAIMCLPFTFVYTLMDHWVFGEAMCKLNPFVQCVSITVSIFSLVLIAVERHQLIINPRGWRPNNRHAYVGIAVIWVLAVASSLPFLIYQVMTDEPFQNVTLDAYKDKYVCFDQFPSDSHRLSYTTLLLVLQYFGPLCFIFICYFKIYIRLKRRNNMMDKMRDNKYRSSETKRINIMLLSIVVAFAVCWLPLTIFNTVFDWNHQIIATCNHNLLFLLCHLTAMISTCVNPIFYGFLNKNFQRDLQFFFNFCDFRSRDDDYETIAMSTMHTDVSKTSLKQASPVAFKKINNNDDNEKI
Type: cell membranes, Membrane
MEASUREMENT PARAMETERS: sk-n-mc
OBSERVED PROPERTY: IC50

Solved entries:
| COMPOUND | OBSERVED PROPERTY | ENDPOINT VALUE |
| --- | --- | --- |
| COc1cc2nc(N3CCN(C(=O)c4ccco4)CC3)nc(N)c2cc1OC | IC50 | Not Active |
| Clc1ccccc1CN1CCc2sccc2C1 | IC50 | Not Active |
| CN/C(=N\CCSCc1nc[nH]c1C)NC#N | IC50 | Not Active |
| CC[C@@H](C(=O)[C@@H](C)[C@@H](O)[C@H](C)[C@@H]1O[C@@H]([C@@H](CC)C(=O)O)CC[C@@H]1C)[C@H]1O[C@]2(C=C[C@@H](O)[C@]3(CC[C@@](C)([C@H]4CC[C@](O)(CC)[C@H](C)O4)O3)O2)[C@H](C)C[C@@H]1C | IC50 | Not Active |

Problem: // query IC50 value for entry `Cn1c(=O)c2[nH]cnc2n(C)c1=O.Cn1c(=O)c2[nH]cnc2n(C)c1=O.NCCN`
Solution: Not Active

Problem: // query IC50 value for entry `COc1ccc2[nH]cc(CCNC(C)=O)c2c1`
Solution: Not Active

Problem: // query IC50 value for entry Cc1cccc(C)c1OCC(C)N (stereo not drawn)
Solution: Not Active

Problem: // query IC50 value for entry CC(c1cc2ccccc2s1)N(O)C(N)=O (stereo not drawn)
Solution: Not Active

Problem: // query IC50 value for entry CCN(CC)CCOCCC1=CCC2CC1C2(C)C (stereo not drawn)
Solution: Not Active

Problem: // query IC50 value for entry `CC(C)NNC(=O)c1ccncc1`
Solution: Not Active

Problem: // query IC50 value for entry O=C1C(CC[S+]([O-])c2ccccc2)C(=O)N(c2ccccc2)N1c1ccccc1 (stereo not drawn)
Solution: Not Active

Problem: // query IC50 value for entry `O=c1cc(N2CCOCC2)oc2c(-c3ccccc3)cccc12`
Solution: Not Active

Problem: // query IC50 value for entry `Oc1c(Cl)cc(Cl)c(Cl)c1Cc1c(O)c(Cl)cc(Cl)c1Cl`
Solution: Not Active

Problem: // query IC50 value for entry `CN(C/C=C/C#CC(C)(C)C)Cc1cccc2ccccc12`
Solution: Not Active

Problem: // query IC50 value for entry CC(=O)[C@@]1(O)CC[C@H]2[C@@H]3CCC4=CC(=O)CC[C@]4(C)[C@H]3CC[C@@]21C [HYDROXYPROGESTERONE]
Solution: Not Active

Problem: // query IC50 value for entry `C[C@@H](CO)NC(=O)[C@@H]1C=C2c3cccc4[nH]cc(c34)C[C@H]2N(C)C1`
Solution: Not Active

Problem: // query IC50 value for entry CCCNCC(O)COc1ccccc1C(=O)CCc1ccccc1 (stereo not drawn)
Solution: Not Active

Problem: // query IC50 value for entry `O=C(O)CCNC(=O)c1ccccc1`
Solution: Not Active

---

MEASUREMENT TARGET: cGMP-specific 3',5'-cyclic phosphodiesterase (Homo sapiens, UniProt O76074)
PROTOCOL SUMMARY: DRUGMATRIX: Phosphodiesterase PDE5 enzyme inhibition (substrate: [3H]cGMP + cGMP)
Type: tissue-based, Platelet
MEASUREMENT PARAMETERS: Not Active = under 50% inhibition at 10 µM; read-out: IC50
OBSERVED PROPERTY: IC50 (µM)
Answer in µM, number only, no unit symbol.

Problem: // query IC50 value for entry `O=c1cc(N2CCOCC2)oc2c(-c3ccccc3)cccc12`
Solution: 9.61

---

PROTOCOL SUMMARY: DRUGMATRIX: Sigma2 radioligand binding (ligand: [3H] Ifenprodil)
Assay type: cell membranes, Rattus norvegicus, Wistar, Brain, Membrane
MEASUREMENT PARAMETERS: Not Active = under 50% inhibition at 10 µM
OBSERVED PROPERTY: Ki

Solved entries:
| MOLECULE | OBSERVED PROPERTY | ENDPOINT VALUE |
| --- | --- | --- |
| CO[C@@H]1[C@@H](OC)[C@H](C)[C@@](O)(CC(=O)O)O[C@H]1[C@H](C)[C@H]1O[C@@]2(CC[C@@](C)([C@H]3CC[C@@](C)([C@@H]4O[C@@H]([C@H]5O[C@](C)(O)[C@H](C)C[C@@H]5C)C[C@@H]4O[C@@H]4C[C@H](OC)[C@@H](OC)[C@H](C)O4)O3)O2)C[C@H](O)[C@H]1C | Ki | Not Active |
| COc1c2occc2cc2ccc(=O)oc12 | Ki | Not Active |
| COC1=C(OC)C(=O)C(CCCCCCCCCCO)=C(C)C1=O | Ki | Not Active |
| Cn1c(=O)c2c(ncn2CC(O)CO)n(C)c1=O (stereo not drawn) | Ki | Not Active |
| C[C@]12C=CC(=O)C=C1CC[C@@H]1[C@@H]2[C@@H](O)C[C@@]2(C)[C@H]1CC[C@]2(O)C(=O)CO | Ki | Not Active |
| CC(C)(C)NC(=O)[C@H]1CC[C@H]2[C@@H]3CC[C@H]4NC(=O)C=C[C@]4(C)[C@H]3CC[C@]12C [FINASTERIDE] | Ki | Not Active |
| COc1ccc(C2C(=O)c3ccccc3C2=O)cc1 | Ki | Not Active |

Problem: // query Ki value for entry CCCNCC(O)COc1ccccc1C(=O)CCc1ccccc1 (stereo not drawn)
Solution: Not Active

---

PROTOCOL SUMMARY: DRUGMATRIX: Glutamate, Kainate radioligand binding (ligand: [3H] Kainic acid)
Assay type: cell membranes, Rattus norvegicus, Wistar, Brain, Membrane
MEASUREMENT PARAMETERS: Not Active = under 50% inhibition at 10 µM
OBSERVED PROPERTY: IC50

Solved entries:
| SUBSTANCE | IC50 |
| --- | --- |
| MANGANESE CHLORIDE ANHYDROUS | Not Active |
| GADOPENTETATE DIMEGLUMINE | Not Active |
| GRAMICIDIN | Not Active |
| SODIUM ORTHOVANAD | Not Active |
| NYSTATIN | Not Active |

Problem: // query IC50 value for entry `GENTAMICIN`
Solution: Not Active

Problem: // query IC50 value for entry `AURANOFIN`
Solution: Not Active

---

MEASUREMENT TARGET: UniProt:P08684
Sequence (P08684 whole entry): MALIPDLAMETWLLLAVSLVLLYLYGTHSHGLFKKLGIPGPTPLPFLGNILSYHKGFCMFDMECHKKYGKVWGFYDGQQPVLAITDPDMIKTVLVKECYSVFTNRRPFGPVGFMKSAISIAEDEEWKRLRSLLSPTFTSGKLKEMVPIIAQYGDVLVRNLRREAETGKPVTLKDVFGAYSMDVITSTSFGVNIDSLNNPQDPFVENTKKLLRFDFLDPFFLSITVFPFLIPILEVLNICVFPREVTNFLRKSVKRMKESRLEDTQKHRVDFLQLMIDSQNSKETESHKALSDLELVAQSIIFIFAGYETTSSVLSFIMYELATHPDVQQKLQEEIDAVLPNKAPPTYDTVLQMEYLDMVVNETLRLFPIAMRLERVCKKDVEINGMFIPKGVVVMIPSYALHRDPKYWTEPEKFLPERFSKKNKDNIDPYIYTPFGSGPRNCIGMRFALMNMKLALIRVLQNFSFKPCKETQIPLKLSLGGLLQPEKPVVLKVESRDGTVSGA
MEASUREMENT PARAMETERS: bti-tn-5b1-4
OBSERVED PROPERTY: IC50

Solved entries:
| COMPOUND | OBSERVED PROPERTY | ENDPOINT VALUE |
| --- | --- | --- |
| Cc1nnc2n1-c1ccc(Cl)cc1C(c1ccccc1)=NC2 [ALPRAZOLAM] | IC50 | Not Active |
| COC(=O)CCc1ccc(OCC(O)CNC(C)C)cc1 (centres undefined) [ESMOLOL] | IC50 | Not Active |
| Oc1cccc(O)c1O [PYROGALLOL] | IC50 | Not Active |
| OC(CCCN1CCCCC1)(c1ccccc1)c1ccccc1 [DIPHENIDOL] | IC50 | Not Active |
| CS(=O)(=O)c1ccc([C@@H](O)[C@@H](CO)NC(=O)C(Cl)Cl)cc1 [THIAMPHENICOL] | IC50 | Not Active |
| CCN1CCC[C@H]1CNC(=O)c1cc(S(N)(=O)=O)ccc1OC [LEVOSULPIRIDE] | IC50 | Not Active |
| Cn1c(=O)c2nc[nH]c2n(C)c1=O.O [THEOPHYLLINE] | IC50 | Not Active |
| CCC(=O)O[C@]1(C(=O)CCl)[C@@H](C)C[C@H]2[C@@H]3CCC4=CC(=O)C=C[C@]4(C)[C@@]3(F)[C@@H](O)C[C@@]21C [CLOBETASOL PROPIONATE] | IC50 | Not Active |

Problem: // query IC50 value for entry Nc1ccn([C@@H]2O[C@H](CO)[C@@H](O)[C@@H]2O)c(=O)n1 [CYTARABINE]
Solution: Not Active
